- Test system: MCF-7 cells
- method notes: MTT cell viability assay, MCF-7
- Assay type: cell-based
- particulars: 24 h, read-out: IC50 (µM) ± SEM, MCF-7 cell line
measured attribute: IC50 (µM)

>>> df
                                   molecule  unit_of_measurement  value_observed
0  N.N.[Cl][Pt][Cl] [Cisplatin, reference compound]                   µM            6.22

---

- Test system: HeLa cells
- method notes: MTT cell viability assay, HeLa
- Type: cell-based
- particulars: Homo sapiens, 24 h, read-out: IC50 (µM) ± SEM, HeLa Cell Line
Exam item: assign True to entries whose IC50 is below 30 µM and False to entries at or above 30 µM. Note that a value of exactly 30 µM receives False.

>>> df
                                    molecule  category_label
 0  Cc1ccc2nc(N)c3c(N)nc4n[nH]cc4c3c2c1 [5b]           False
 1  Cc1[nH]nc2nc(N)c3c(N)nc4ccc(Cl)cc4c3c12 [5k]            True
 2  Nc1nc2ccc(Cl)cc2c2c1c(N)nc1n[nH]cc12 [5d]           False
 3  Cc1[nH]nc2nc(N)c3c(N)nc4ccc(F)cc4c3c12 [5j]            True
 4  Cc1ccc2nc(N)c3c(N)nc4n[nH]c(C)c4c3c2c1 [5i]           False
 5     Nc1nc2ccccc2c2c1c(N)nc1n[nH]cc12 [5a]           False
 6  Cc1[nH]nc2nc(N)c3c(N)nc4ccc(Br)cc4c3c12 [5l]           False
 7  Nc1nc2ccc(F)cc2c2c1c(N)nc1n[nH]cc12 [5c]            True
 8  Cc1[nH]nc2nc(N)c3c(N)nc4ccc(OC(F)(F)F)cc4c3c12 [5n]           False
 9  Nc1nc2ccc([N+](=O)[O-])cc2c2c1c(N)nc1n[nH]cc12 [5f]           False
10  N#CC1=C(N)Nc2n[nH]cc2C12C(=O)Nc1ccc(F)cc12 (centres unmarked) [4c]           False
11  Cc1[nH]nc2nc(N)c3c(N)nc4ccccc4c3c12 [5h]            True
12  N#CC1=C(N)Nc2n[nH]cc2C12C(=O)Nc1ccc(Cl)cc12 (centres unmarked) [4d]           False
